The molecules listed here are annotated with their half-life.
experiment: Half life in Sprague-Dawley rat at 1 mg/kg, iv; type: ADME, organism-based; settings: in vivo

// worked examples, half-life included
record.smiles	half-life
COc1ccccc1N1CCN(c2nc3c(c(=O)[nH]2)CCCC3)CC1	13 h
CS(=O)(=O)c1ccc(-c2nnc(/C=C/c3nnc(-c4ccc(C#N)cc4)o3)n2-c2ccccc2Cl)nc1	3.3 h

For the next question, use this molecule.
Task: Which half-life reading was recorded for the molecule `O=c1[nH]c(N2CCC3(CC2)CN(CCO)c2cc(F)cc(F)c23)nc2c1CCCC2` ?
Result: 3.5 h

====

The molecules listed here are annotated with their pIC50.
Molecular target: Poly [ADP-ribose] polymerase tankyrase-2 (Homo sapiens, UniProt Q9H2K2)
Sequence (Q9H2K2 whole entry): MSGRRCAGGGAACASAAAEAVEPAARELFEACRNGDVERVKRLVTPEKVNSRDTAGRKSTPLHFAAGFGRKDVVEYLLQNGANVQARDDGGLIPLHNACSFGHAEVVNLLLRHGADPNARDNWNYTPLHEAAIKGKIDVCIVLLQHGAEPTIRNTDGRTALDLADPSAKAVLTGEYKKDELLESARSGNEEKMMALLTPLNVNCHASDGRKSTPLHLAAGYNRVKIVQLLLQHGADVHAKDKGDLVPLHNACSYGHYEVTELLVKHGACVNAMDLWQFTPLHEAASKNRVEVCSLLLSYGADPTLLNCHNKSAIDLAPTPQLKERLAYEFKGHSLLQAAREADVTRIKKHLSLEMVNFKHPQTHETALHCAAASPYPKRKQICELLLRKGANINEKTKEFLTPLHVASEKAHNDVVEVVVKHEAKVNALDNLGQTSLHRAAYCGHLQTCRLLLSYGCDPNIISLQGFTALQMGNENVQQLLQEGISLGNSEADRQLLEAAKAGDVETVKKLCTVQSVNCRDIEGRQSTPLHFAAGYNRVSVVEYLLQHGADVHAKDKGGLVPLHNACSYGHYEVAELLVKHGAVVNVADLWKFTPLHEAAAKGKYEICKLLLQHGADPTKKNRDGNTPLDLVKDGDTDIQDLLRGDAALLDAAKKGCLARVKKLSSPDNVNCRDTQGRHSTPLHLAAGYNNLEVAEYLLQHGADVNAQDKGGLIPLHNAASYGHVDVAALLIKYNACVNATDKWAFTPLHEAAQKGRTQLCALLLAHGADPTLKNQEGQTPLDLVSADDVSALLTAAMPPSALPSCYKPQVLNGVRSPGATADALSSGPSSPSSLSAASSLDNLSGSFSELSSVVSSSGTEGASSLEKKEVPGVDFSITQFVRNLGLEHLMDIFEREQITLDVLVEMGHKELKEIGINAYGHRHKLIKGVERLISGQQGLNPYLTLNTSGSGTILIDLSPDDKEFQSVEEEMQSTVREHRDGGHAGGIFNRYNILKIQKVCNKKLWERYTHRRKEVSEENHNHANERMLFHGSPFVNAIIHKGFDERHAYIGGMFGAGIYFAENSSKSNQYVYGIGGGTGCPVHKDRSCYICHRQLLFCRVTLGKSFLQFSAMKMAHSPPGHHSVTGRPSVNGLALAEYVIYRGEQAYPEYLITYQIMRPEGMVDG
# log scale: pIC50 equals minus log10 of the concentration in mol/L

// worked examples, pIC50 included
record.smiles	pIC50
O=c1[nH]c(N2CCC3(CC2)CN(CCO)c2ccccc23)nc2c1CCCC2	7.57
O=C1NC2(CCN(c3nc4c(c(=O)[nH]3)CCCC4)CC2)c2ccccc21	6.59
COc1ccc(N2CCN(c3nc4c(c(=O)[nH]3)COCC4)CC2)cc1	6.83

Task: Form entry - test system: Poly [ADP-ribose] polymerase tankyrase-2 (Homo sapiens, UniProt Q9H2K2); read-out: pIC50; molecule: `O=C1Nc2cccc(F)c2C12CCN(c1nc3c(c(=O)[nH]1)CCCC3)CC2`
Result: 8.33

Task: Form entry - test system: Poly [ADP-ribose] polymerase tankyrase-2 (Homo sapiens, UniProt Q9H2K2); read-out: pIC50; molecule: `O=c1[nH]c(N2CCC3(CC2)CNc2cccc(F)c23)nc2c1CCCC2`
Result: 8.55

Task: Form entry - test system: Poly [ADP-ribose] polymerase tankyrase-2 (Homo sapiens, UniProt Q9H2K2); read-out: pIC50; molecule: `O=C1N(CCO)c2cc(Cl)cc(Cl)c2C12CCN(c1nc3c(c(=O)[nH]1)CCCC3)CC2`
Result: 8.02

Task: Form entry - test system: Poly [ADP-ribose] polymerase tankyrase-2 (Homo sapiens, UniProt Q9H2K2); read-out: pIC50; molecule: `COc1cccc(N2CCN(c3nc4c(c(=O)[nH]3)CCCC4)CC2)c1`
Result: 7.40

Task: Form entry - test system: Poly [ADP-ribose] polymerase tankyrase-2 (Homo sapiens, UniProt Q9H2K2); read-out: pIC50; molecule: `COc1ccccc1N1CCN(c2nc3c(c(=O)[nH]2)CCCC3)CC1`
Result: 7.71

Task: Form entry - test system: Poly [ADP-ribose] polymerase tankyrase-2 (Homo sapiens, UniProt Q9H2K2); read-out: pIC50; molecule: `O=C1N(CCO)c2cccc(F)c2C12CCN(c1nc3c(c(=O)[nH]1)CCCC3)CC2`
Result: 8.09

====

assay: in vitro; conditions: human, liver microsomes
Description: Stability in human liver microsomes assessed as parent compound remaining at 1 uM measured after 30 mins in presence of NADPH by LC-MS/MS analysis
readout.kind: remaining at 0.5 h, 1 µM
In your response, put the unit directly after the numeric value.

// worked examples, remaining at 0.5 h, 1 µM included
record.smiles	result
O=c1[nH]c(N2CCC3(CC2)OCc2ccccc23)nc2c1CCCC2	76.3%
COc1ccccc1C1=CCN(c2nc3c(c(=O)[nH]2)CCCC3)CC1	99.3%
O=C1N(CCO)c2cc(F)cc(F)c2C12CCN(c1nc3c(c(=O)[nH]1)CCCC3)CC2	39.5%

For the next question, use this compound.
Task: Which remaining at 0.5 h, 1 µM reading was recorded for the compound `O=C1Oc2ccccc2C12CCN(c1nc3c(c(=O)[nH]1)CCCC3)CC2` ?
Result: 28.1%

====

target: Tankyrase 1/2 (Homo sapiens, UniProt Q9H2K2+O95271)
readout.kind: IC50 (nM)
Please respond with the number in nM and leave the unit unwritten.

// worked examples, IC50 included
compound	IC50, nM
O=C1Nc2cc(Cl)ccc2C12CCN(c1nc3c(c(=O)[nH]1)CCCC3)CC2	623
O=c1[nH]c(N2CCC3(CC2)CNc2cc(F)cc(F)c23)nc2c1CCCC2	110
O=c1[nH]c(N2CCC3(CC2)CN(CCO)c2cccc(Cl)c23)nc2c1CCCC2	52.9
COc1ccccc1N1CCN(c2nc3c(c(=O)[nH]2)CC(C)CC3)CC1 (configuration not stated)	7282

Task: Form entry - test system: Tankyrase 1/2 (Homo sapiens, UniProt Q9H2K2+O95271); read-out: IC50; compound: `COc1ccc(N2CCN(c3nc4c(c(=O)[nH]3)CSCC4)CC2)cc1`
Result: 114

Task: Form entry - test system: Tankyrase 1/2 (Homo sapiens, UniProt Q9H2K2+O95271); read-out: IC50; compound: `O=c1[nH]c(N2CCC3(CC2)COc2ccccc23)nc2c1CCCC2`
Result: 608

Task: Form entry - test system: Tankyrase 1/2 (Homo sapiens, UniProt Q9H2K2+O95271); read-out: IC50; compound: `O=c1[nH]c(N2CCC3(CC2)CNc2cc(Cl)cc(Cl)c23)nc2c1CCCC2`
Result: 609

====

test: Volume of distribution at steady state in Sprague-Dawley rat at 1 mg/kg, iv; assay type: ADME, organism-based; settings: in vivo, read-out: Vdss
readout.kind: Vd (L/kg)
Please respond with the number in L/kg and leave the unit unwritten.

// worked examples, Vd included
record.smiles	readout.kind	numeric.readout
CS(=O)(=O)c1ccc(-c2nnc(/C=C/c3nnc(-c4ccc(C#N)cc4)o3)n2-c2ccccc2Cl)nc1	Vd	1.79
COc1ccccc1N1CCN(c2nc3c(c(=O)[nH]2)CCCC3)CC1	Vd	58.9

For the next question, use this molecule.
Task: Which Vd reading was recorded for the molecule `O=c1[nH]c(N2CCC3(CC2)CN(CCO)c2cc(F)cc(F)c23)nc2c1CCCC2` ?
Result: 0.59

====

The compounds listed here are annotated with their AUC(0-inf).
test: AUC (infinity) in Sprague-Dawley rat at 1 mg/kg, iv; format: ADME, organism-based; set-up: dose 1 mg/kg, route intravenous, time infinity; details: in vivo
Please respond with the number in µM·h and leave the unit unwritten.

Task: Which AUC(0-inf) reading was recorded for the compound `O=c1[nH]c(N2CCC3(CC2)CN(CCO)c2cc(F)cc(F)c23)nc2c1CCCC2` ?
Result: 4.42

Task: Which AUC(0-inf) reading was recorded for the compound `COc1ccccc1N1CCN(c2nc3c(c(=O)[nH]2)CCCC3)CC1` ?
Result: 0.72

Task: Which AUC(0-inf) reading was recorded for the compound `CS(=O)(=O)c1ccc(-c2nnc(/C=C/c3nnc(-c4ccc(C#N)cc4)o3)n2-c2ccccc2Cl)nc1` ?
Result: 0.79
